# Test system: HT-1080 cells expressing IDH1R132C
# testProtocol: 2-HG production inhibitory activity using HT1080 cell
# Format: cell-based, human
# conditions: Homo sapiens, HT-1080; 2-HG production, HT1080 cells; read-out: Test Example 3 IC50
# Description: Then, 100 μL of growth medium B was added to each well, further 25 μL of a solution of each compound diluted to a predetermined concentration with growth medium B was added to each well, and the cells were incubated at 37° C. for 2 days under 5% CO2. […] Then, 150 μL of ultrapure water was further added to each well, and the mixture was stirred by pipetting and stored at −20° C. The preserved solutions were thawed at room temperature.
Reported IC50 values follow for various compounds
Write the number in µM without appending the unit.

C=CC(=O)N1CC2(CC2)N(c2onc(-c3c(Cl)cccc3OC)c2C(=O)n2ccc3c(/C=C/C(=O)O)cccc32)C[C@H]1C [Example 158] ... 0.178
C=CC(=O)N1CCC(c2onc(-c3c(Cl)cc(Cl)cc3Cl)c2C(=O)c2cn(C)c3c(/C=C/C(=O)O)cccc23)CC1 [Example 166] ... 0.299
C=CC(=O)N1CCC(c2onc(-c3c(C)cc(Cl)cc3C)c2C(=O)n2ccc3c(/C=C/C(=O)O)cccc32)CC1 [Example 110] ... 0.048
Cc1cn(C(=O)c2c(-c3c(Cl)cc(Cl)cc3Cl)noc2C2(N(C)C)CCC2)c2cccc(/C=C/C(=O)O)c12 [Example 81] ... 0.031

Inquiry: Fill in the blank: the reported IC50 of CC(C)(F)c1onc(-c2ccc(Cl)cc2Cl)c1C(=O)n1cc2c3c(cccc31)/C(=C/C(=O)O)CC2 [Example 69] is ____.
Reply text: 0.197

Inquiry: Ok, now COC1(c2onc(-c3c(Cl)cc(Cl)cc3Cl)c2C(=O)n2cc3c4c(cccc42)/C(=C/C(=O)O)CC3)CCC1 [Example 12]
Reply text: 0.024

Inquiry: Ok, now CC1(c2onc(-c3c(Cl)cc(Cl)cc3Cl)c2C(=O)n2ccc3c(/C=C/C(=O)O)cccc32)COC1 [Example 1]
Reply text: 0.033
